System: CV-1 cells
Assay explanation: Transfection of CV-1 cells with ODN1 and toxicity (Example 22)
Format: cell-based, African green monkey
Test parameters: 1 μg lipid, 2:1 DOPE, 6 h, 10% FBS, 250 pmole ODN1

{"Compound": "CCCCCCCCCCCCCCN(CCCCCCCCCCCCCC)C(=O)CNC(=O)[C@@H](N)CCCNC(=N)N", "% cells transfected [%]": 40}
{"Compound": "CCCCCCCCCCCCCCN(CCCCCCCCCCCCCC)C(=O)CNC(=O)C(N)CCCNC(=N)NC(=O)OC(C)C.Cl.Cl (centres unmarked)", "% cells transfected [%]": 30}
{"Compound": "CCCCCCCCCCCCCCN(CCCCCCCCCCCCCC)C(=O)CNC(=O)[C@@H](N)CCCNC(=N)NC(=O)OC(C)(C)C", "% cells transfected [%]": 40}

---

Tested on: CV-1 cells
Assay explanation: Transfection of CV-1 cells with ODN1 and toxicity (Example 22)
Format: cell-based, African green monkey
Test parameters: 10.0 μg lipid, 2:1 DOPE, 6 h, 10% FBS, 250 pmole ODN1

{"Compound": "CCCCCCCCCCCCCCN(CCCCCCCCCCCCCC)C(=O)CNC(=O)[C@@H](N)CCCNC(=N)NC(=O)OC(C)(C)C", "Unit abbrev": "%", "% cells transfected": 60}
{"Compound": "CCCCCCCCCCCCCCN(CCCCCCCCCCCCCC)C(=O)CNC(=O)C(N)CCCNC(=N)NC(=O)OC(C)C.Cl.Cl (centres unmarked)", "Unit abbrev": "%", "% cells transfected": 60}
{"Compound": "CCCCCCCCCCCCCCN(CCCCCCCCCCCCCC)C(=O)CNC(=O)C(N)CCCNC(=N)NC(C)=O.Cl.Cl (centres unmarked)", "Unit abbrev": "%", "% cells transfected": 60}
{"Compound": "CCCCCCCCCCCCCCN(CCCCCCCCCCCCCC)C(=O)CNC(=O)C(N)CCCNC(=N)NC(=O)C(C)(C)C.Cl.Cl (centres unmarked)", "Unit abbrev": "%", "% cells transfected": 40}
{"Compound": "CCCCCCCCCCCCCCN(CCCCCCCCCCCCCC)C(=O)CNC(=O)[C@@H](N)CCCNC(=N)N", "Unit abbrev": "%", "% cells transfected": 40}

---

Assay explanation: Transfection of Caco-2 cells with ODN1 using 34 (Example 12)
Format: cell-based, human
Test parameters: human, caco-2 cells; Caco-2, 5.0 μg lipid; read-out: toxicity

{"Smiles representation": "CCCCCCCCCCCCCCCCCCN(CCCCCCCCCCCCCCCCCC)C(=O)CNC(=O)[C@@H](N)CCCNC(=N)NC(=O)OC(C)(C)C", "cytotoxicity at 6 h": "< 10%"}

These entries and their values trace back to patent US5705693A.
